System: MDA-MB-231 breast
Test: NCI-60 one-dose screen, 48 h (100 = growth as untreated, 0 = no growth, -100 = all killed)
Details: 10 µM unless noted
The panel holds about 83,000 compounds, 20% with a hit somewhere; the sample as a whole holds those more often.
Measured growth by item
QUANTITY_MEASURED: growth (%)

{"TEST_SMILES": "C#C[C@@]1(O)[C@@H](CO)O[C@@H](n2cc(C(F)(F)F)c3c(N)ncnc32)[C@@H]1O", "OBS_VALUE": 14}
{"TEST_SMILES": "O=C(Nc1ccc(-n2ccc3c(NC(=O)c4ccccc4)ncnc32)cc1)c1cccc(C(F)(F)F)c1", "OBS_VALUE": 51.5}
{"TEST_SMILES": "Nc1ccc(S(=O)(=O)Nc2cc(I)cc(I)c2)cc1", "OBS_VALUE": 102}
{"TEST_SMILES": "O=c1c2ccccc2sc2c(NCCCNCCO)nc3ccccc3c12", "OBS_VALUE": -10.6}

----------
Test system: CCRF-CEM leukemia
Experiment: NCI-60 one-dose screen, 48 h (100 = growth as untreated, 0 = no growth, -100 = all killed)
Conditions: 10 µM unless noted
Compounds without any hit were thinned out: in the full panel of roughly 83,000, 20% have a hit. The source made the active and inactive calls. The calls were made as follows: active = growth percent below 10; inactive = the rest.

{"MOLECULE": "COc1ccc(-c2nnc(NC(=O)CN3CCN(c4cc5c(cc4F)c(=O)c(C(=O)O)cn5C4CC4)CC3)s2)cc1OC", "TARGET_OR_SYSTEM": "CCRF-CEM leukemia", "growth": "98.9% (inactive)"}
{"MOLECULE": "Cn1cnc([N+](=O)[O-])c1N1c2ccncc2Sc2ccncc21", "TARGET_OR_SYSTEM": "CCRF-CEM leukemia", "growth": "94.7% (inactive)"}
{"MOLECULE": "O=C(C[n+]1ccccc1Cl)c1ccc2c(c1)CCCC2", "TARGET_OR_SYSTEM": "CCRF-CEM leukemia", "growth": "90.6% (inactive)"}
{"MOLECULE": "CC(NCCC(c1ccccc1)c1ccccc1)c1ccccc1 (stereo not drawn)", "TARGET_OR_SYSTEM": "CCRF-CEM leukemia", "growth": "48% (inactive)"}
{"MOLECULE": "O=C(O)c1cn(C2CC2)c2cc(N3CCN(C(=O)CSc4nc(NS(=O)(=O)c5ccccc5)cc(=O)[nH]4)CC3)c(F)cc2c1=O", "TARGET_OR_SYSTEM": "CCRF-CEM leukemia", "growth": "81% (inactive)"}
{"MOLECULE": "Nn1c(SCC(=O)Nc2cc(Cl)c(Cl)cc2Cl)nnc1-c1cc(F)c(Cl)cc1Cl", "TARGET_OR_SYSTEM": "CCRF-CEM leukemia", "growth": "125% (inactive)"}
{"MOLECULE": "Cc1cc(-c2ccccc2)nc2ccccc12", "TARGET_OR_SYSTEM": "CCRF-CEM leukemia", "growth": "84.9% (inactive)"}
{"MOLECULE": "Cc1cc(C)c(O)c(C(=O)CC(Br)C(=O)O)c1 (stereo not drawn)", "TARGET_OR_SYSTEM": "CCRF-CEM leukemia", "growth": "65.2% (inactive)"}
{"MOLECULE": "CC(=O)c1cc2c(N)c(C(=O)Nc3cccc(Cl)c3)sc2nc1C", "TARGET_OR_SYSTEM": "CCRF-CEM leukemia", "growth": "92.8% (inactive)"}
{"MOLECULE": "CCC(C)Nc1ccc(N)cc1 (stereo not drawn)", "TARGET_OR_SYSTEM": "CCRF-CEM leukemia", "growth": "12.8% (inactive)"}
{"MOLECULE": "O=C(O)c1ccc(-n2cc(/C=N/Nc3ccc(F)cc3)c(-c3cccc(C(F)(F)F)c3)n2)cc1", "TARGET_OR_SYSTEM": "CCRF-CEM leukemia", "growth": "33.7% (inactive)"}
{"MOLECULE": "Cc1ccc[n+](CC(=O)c2cccc3ccccc23)c1", "TARGET_OR_SYSTEM": "CCRF-CEM leukemia", "growth": "101% (inactive)"}
{"MOLECULE": "CN(CCNCc1ccccn1)CCNCc1ccccn1", "TARGET_OR_SYSTEM": "CCRF-CEM leukemia", "growth": "10.7% (inactive)"}
{"MOLECULE": "Nc1ccc(S(=O)(=O)Nc2cc(I)cc(I)c2)cc1", "TARGET_OR_SYSTEM": "CCRF-CEM leukemia", "growth": "-9.38% (active)"}
{"MOLECULE": "O=C1/C(=C/c2cccc3cnccc23)Cc2cc(F)ccc21", "TARGET_OR_SYSTEM": "CCRF-CEM leukemia", "growth": "110% (inactive)"}
{"MOLECULE": "CSc1ccc(C(=O)C[n+]2cccc(C)c2)cc1", "TARGET_OR_SYSTEM": "CCRF-CEM leukemia", "growth": "99.8% (inactive)"}
{"MOLECULE": "NCC(=O)NS(=O)(=O)OC[C@H]1O[C@@H](n2cnc3c(N)ncnc32)[C@H](O)[C@@H]1O", "TARGET_OR_SYSTEM": "CCRF-CEM leukemia", "growth": "21.7% (inactive)"}
{"MOLECULE": "C[C@H]1C=C(C[C@@H](O)CC#CC#CCCCCC[C@@H](O)[C@H]2CCC(=O)O2)C(=O)O1", "TARGET_OR_SYSTEM": "CCRF-CEM leukemia", "growth": "106% (inactive)"}
{"MOLECULE": "O=C(CSc1nnc(-c2cc3c([nH]c4ccccc43)c(-c3cccc(O)c3)n2)n1-c1ccccc1)c1ccccc1", "TARGET_OR_SYSTEM": "CCRF-CEM leukemia", "growth": "30.9% (inactive)"}
{"MOLECULE": "CCOC(=O)C1CN(Cc2ccccc2)C(=O)C1=O (stereo not drawn)", "TARGET_OR_SYSTEM": "CCRF-CEM leukemia", "growth": "22.9% (inactive)"}
{"MOLECULE": "Nc1ncnc2c1c(C(F)(F)F)cn2[C@@H]1O[C@H](CO)[C@@H](O)[C@H]1O", "TARGET_OR_SYSTEM": "CCRF-CEM leukemia", "growth": "5.79% (active)"}
{"MOLECULE": "Cc1cn(C2CC(N=[N+]=[N-])C(COP(=O)(O)OP(=O)(O)OP(=O)(O)O)O2)c(=O)[nH]c1=O (stereo not drawn)", "TARGET_OR_SYSTEM": "CCRF-CEM leukemia", "growth": "-98% (active)"}
{"MOLECULE": "O=C(CSc1nnc(-c2ccccc2)o1)Nc1ccc(C(=O)/C=C/c2ccccc2)cc1", "TARGET_OR_SYSTEM": "CCRF-CEM leukemia", "growth": "55.5% (inactive)"}
{"MOLECULE": "COc1ccc(/C=N/C2=NNC(C)(c3ccccc3O)N2C(Cc2c[nH]c3ccccc23)C(=O)O)cc1 (stereo not drawn)", "TARGET_OR_SYSTEM": "CCRF-CEM leukemia", "growth": "19.7% (inactive)"}
{"MOLECULE": "COc1ccc(Cl)cc1NC(=O)c1cc2c([nH]1)-c1nc(NC(=O)C(C)(C)C)sc1CC2", "TARGET_OR_SYSTEM": "CCRF-CEM leukemia", "growth": "52% (inactive)"}
{"MOLECULE": "O=C(O)c1ccc2nc(-c3ccc(OCCCCCOc4ccc(-c5nc6ccc(C(=O)O)cc6[nH]5)cc4)cc3)[nH]c2c1", "TARGET_OR_SYSTEM": "CCRF-CEM leukemia", "growth": "76.1% (inactive)"}
{"MOLECULE": "Cc1ccc2c(c1)Nc1ccc(C)cc1C2(C)C", "TARGET_OR_SYSTEM": "CCRF-CEM leukemia", "growth": "92.8% (inactive)"}
{"MOLECULE": "CCNC(=O)Oc1ccc(/C(=C(/CC)Cc2ccccc2)c2ccc(OCCN3CCOCC3)cc2)cc1", "TARGET_OR_SYSTEM": "CCRF-CEM leukemia", "growth": "61.7% (inactive)"}
{"MOLECULE": "O=c1[nH]ccc2nc(N3CCC(O)CC3)nc(Nc3cccc(C(F)(F)F)c3)c12", "TARGET_OR_SYSTEM": "CCRF-CEM leukemia", "growth": "13% (inactive)"}
{"MOLECULE": "CC(=O)CC/C=C(\\C)[C@H](O)[C@H](C)C(=O)O[C@H]1C[C@H](C)C=C2C=C[C@@]3(C)O[C@@H](O)CC(=O)[C@]3(C)[C@H]21", "TARGET_OR_SYSTEM": "CCRF-CEM leukemia", "growth": "4.28% (active)"}
{"MOLECULE": "CC(=O)n1cc(/C=C2\\N=C(c3ccc(Cl)cc3)N(c3ccc(S(=O)(=O)Nc4nccs4)cc3)C2=O)c2ccccc21", "TARGET_OR_SYSTEM": "CCRF-CEM leukemia", "growth": "47.8% (inactive)"}
{"MOLECULE": "CC1=C[S+](c2ccccc2)c2cccc3cc4ccccc4c1c23 (stereo not drawn)", "TARGET_OR_SYSTEM": "CCRF-CEM leukemia", "growth": "4.35% (active)"}
{"MOLECULE": "COc1ccc(Cl)cc1NC(=O)c1cc2c(n1C)-c1nc(NC(=O)C(C)C)sc1CC2", "TARGET_OR_SYSTEM": "CCRF-CEM leukemia", "growth": "84.4% (inactive)"}
